# measurement description: Human HepG2 cell viability assay in 384 well format
# Assay type: toxicity, cell-based
# Set-up: dose 125 nL, time 70.5 hour; concentration not given beside the values
# recorded conditions: HepG2 cells, read-out: Inhibition
measured attribute: cytotoxicity at 70.5 h (%)
# output: bare number, implied unit %

Please review the following examples before continuing.
molecule	measured attribute	measurement unit	recorded measurement
O=C(NCc1cn2c(n1)SCC2)c1cn(CCN2CCCCC2)nn1	cytotoxicity at 70.5 h	%	17.2
Cc1noc(C)c1CN(C)C(=O)C1CCCCN1CC(C)C (stereo unspecified)	cytotoxicity at 70.5 h	%	5.24
CCS(=O)(=O)c1ccc2c(c1)N1CCS(=O)(=O)N=C1O2	cytotoxicity at 70.5 h	%	-15.4
CC1c2ncc(Cn3cccn3)n2CCN1S(=O)(=O)C1CC1 (stereo unspecified)	cytotoxicity at 70.5 h	%	-5.83
CC(C)c1nccn1C1CCCN(C(=O)c2cnc[nH]2)C1 (stereo unspecified)	cytotoxicity at 70.5 h	%	3.72
O=C(CN1CCN(C(=O)Cc2ccc3c(c2)OCCO3)CC1)NC1CC1	cytotoxicity at 70.5 h	%	-12.7

q: Param item = N#Cc1cccc(N2CCC(CO)(CCc3ccccc3)CC2)n1 ; retrieve measured cytotoxicity at 70.5 h.
a: -5.51

q: Quick one: cytotoxicity at 70.5 h of CNC(=O)[C@H]1C[C@@H]2CN(C(=O)c3ccco3)C[C@@H]2N1S(C)(=O)=O ?
a: -7.68

q: # get_value(readout='cytotoxicity at 70.5 h', item= CSc1ncc(CN2C[C@H]3CC[C@@H]2CN(C2CCOCC2)C3)cn1 )
a: -3.4

q: Name the reported cytotoxicity at 70.5 h value associated with the molecule O=C(O)CCn1ccc(=O)c2ccccc21
a: -3.76

q: Return reported cytotoxicity at 70.5 h; argument: Cc1noc(C)c1CN1CCOC2(CCCN(c3ncccn3)C2)C1 (stereo unspecified)
a: -5.7

q: Requested field: cytotoxicity at 70.5 h. Item: CC(C)Cc1cc(C(=O)N2CCC[C@H]2C(=O)N2CCOCC2)on1
a: -9.69

q: Requested read-out: cytotoxicity at 70.5 h. Entry: CC(C)(CNc1cccc(Cl)c1)NC(=O)C1CCCN(CC(N)=O)C1 (stereo unspecified)
a: -8.71

q: Which cytotoxicity at 70.5 h value is on record for COc1ccc(-c2noc([C@@H]3C[C@@H](O)CN3C3CCN(C)CC3)n2)cc1 ?
a: -2.03

q: Look up cytotoxicity at 70.5 h for this molecule: COc1ccc(-c2nc(CN3CCc4c(ncn4C)C3)cs2)cc1
a: 21.3

###

# measurement description: Human HepG2 cell viability assay in 384 well format
# Type: toxicity, cell-based
# Set-up: dose 125 nL, time 70.5 hour; concentration not given beside the values
# recorded conditions: HepG2 cells, read-out: Inhibition
measured attribute: cytotoxicity at 70.5 h (%)
Report the value in % with no unit label.

Use these answered entries as a reference point.
molecule	measurement unit	recorded measurement
CCc1ccc(C(=O)N2C[C@@H]3COC[C@@H](C(=O)NC)[C@@H]3C2)cc1	%	-0.591
COc1cccc(C(=O)NS(=O)(=O)c2cc(Cl)sc2Cl)c1OC(F)F	%	-7.95
CN1[C@H](Cn2cccn2)C[C@@H]2CN(C(=O)Cc3cccs3)CC[C@@H]21	%	24.7

q: Please look up its cytotoxicity at 70.5 h: CNc1ccc(CC2CCCN(C(=O)c3cccc(C)n3)C2)nn1 (stereo unspecified)
a: -0.376

q: Item Cc1ccc(CN2CCC3(CCC(C(=O)N(C)C)O3)CC2)o1 (stereo unspecified) has what recorded cytotoxicity at 70.5 h?
a: -23.2

q: Please look up its cytotoxicity at 70.5 h: CN(Cc1ccncc1)CC(c1cccs1)N1CCOCC1 (stereo unspecified)
a: 36

q: Which cytotoxicity at 70.5 h value is on record for Cc1cc(C2CCCN2C(=O)Cn2c(C)cc(=O)c3ccccc32)on1 (stereo unspecified) ?
a: -6.42

q: So what does the record say about cytotoxicity at 70.5 h for COCCN1CCC(CNC(=O)C2(c3ccccc3)CCC2)C1 (stereo unspecified) ?
a: -3.28

q: Which cytotoxicity at 70.5 h reading was recorded for the molecule CCOc1ccc(CNCCCn2ccnc2)cc1OC ?
a: -13.2

q: Name the reported cytotoxicity at 70.5 h value associated with the molecule CCOC(=O)N1CCN(CC(=O)Nc2nnc(CC)s2)CC1
a: -4.24

q: Value lookup for cytotoxicity at 70.5 h; key = CCS(=O)(=O)c1ccc2oc([C@H]3CCN(Cc4ccccn4)C3)nc2c1
a: 2.52
